Provide the recorded IC50 for the entries that follow.
# Test system: HT-1197 cells
# Protocol summary: Cell-based assay: anti-proliferative activity, Cell Counting Kit-8, 72 hours (HT-1197, negative control without MELK expression)
# Settings: Homo sapiens, HT1197, 72 h, HT1197 cells (negative control, no MELK expression), 72 hours

// CN1CCCC(n2cc(Nc3c(C(=O)C4CC4)cnc4ccc(-c5cc(F)c(O)c(Cl)c5)cc34)cn2)C1 (stereo not shown) [Example 699] : IC50 value = 2.7 µM

// O=C(c1cnc2ccc(-c3cc(F)c(O)c(Cl)c3)cc2c1Nc1ccc(CN2CCCC2)cc1)C1CC1 [Example 396] : IC50 value = 1.6 µM

// O=C(c1cnc2ccc(-c3cc(F)c(O)c(Cl)c3)cc2c1Nc1ccc(CN2CCCC2)nc1)C1CC1 [Example 672] : IC50 value = 3.2 µM

// N#Cc1ncc(-c2ccc3ncc(C(=O)C4CC4)c(Nc4ccc(CN)cc4)c3c2)cn1 [Example 509] : IC50 value = 0.95 µM

// COc1cc(-c2ccc3ncc(C(=O)C4CC4)c(Nc4cccc(CCN(C)C)c4)c3c2)cc(Cl)c1O [Example 692] : IC50 value = 5.9 µM

// C[S+]([O-])c1cnc2ccc(-c3cc(Cl)c(O)c(Cl)c3)cc2c1N[C@H]1CC[C@H](N)CC1 (stereo partly shown) [Example 491] : IC50 value = 10 µM

// CCC(=O)c1cnc2ccc(-c3cc(Cl)c(O)c(OC)c3)cc2c1Nc1ccc(CN(C)C)cc1 [Example 769] : IC50 value = 2.8 µM
